molecular target: human M4 receptor (Homo sapiens); experiment: cAMP assay for M4 positive allosteric modulators (M4 PAM cAMP assay); assay type: cell-based; set-up: expressed in transfected cells; host or cells: CHO-K1; settings: Table 1; CHO-K1 cells expressing human M4; forskolin 7.5 μM + acetylcholine EC20 (0.2 nM)
Sequence (P08173 whole entry): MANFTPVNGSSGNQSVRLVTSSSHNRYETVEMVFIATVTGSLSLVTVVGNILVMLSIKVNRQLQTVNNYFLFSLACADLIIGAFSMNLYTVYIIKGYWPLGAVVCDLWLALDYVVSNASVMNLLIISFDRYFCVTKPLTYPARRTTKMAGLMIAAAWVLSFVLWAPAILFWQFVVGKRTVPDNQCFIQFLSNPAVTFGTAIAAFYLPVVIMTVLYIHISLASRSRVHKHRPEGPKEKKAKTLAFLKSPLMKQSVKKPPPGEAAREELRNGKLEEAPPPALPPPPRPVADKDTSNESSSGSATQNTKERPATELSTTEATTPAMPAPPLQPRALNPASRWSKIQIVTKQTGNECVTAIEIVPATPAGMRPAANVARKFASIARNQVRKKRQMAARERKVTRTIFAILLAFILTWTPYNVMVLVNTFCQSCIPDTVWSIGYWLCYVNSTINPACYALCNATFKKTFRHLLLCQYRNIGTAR
Criterion: EC50 strictly less than 800 nM. Met: yes. Not met: no.

In [3]: df
Out[3]:
                                test_smiles                     target_entity  label
0  Cc1nc2c(c(C)c1Cl)CN(C(=O)[C@@H]1CCN(c3cc(C4CC4)ncn3)C1)C2  human M4 receptor (Homo sapiens)    yes
1  Cc1nc2c(c(C)c1Cl)CN(C(=O)[C@@H]1CCN(c3cccnn3)C1)C2  human M4 receptor (Homo sapiens)     no
2  Cc1nc2c(c(C)c1Cl)CN(C(=O)[C@@H]1CCN(c3ccnc(C4CC4)n3)C1)C2  human M4 receptor (Homo sapiens)     no
3  Cc1cc(N2CC[C@@H](C(=O)N3Cc4nc(C)c(Cl)c(C)c4C3)C2)cnn1  human M4 receptor (Homo sapiens)     no
4  COc1cncc(N2CC[C@@H](C(=O)N3Cc4nc(C)c(Cl)c(C)c4C3)C2)c1  human M4 receptor (Homo sapiens)    yes

Now consider the entry below.
Challenge: # TODO verify EC50 < 800 nM strictly for this molecule: Cc1ncc(N2CC[C@@H](C(=O)N3Cc4nc(C)c(Cl)c(C)c4C3)C2)cn1
Response given: yes
